Catalogue of inhibition values
System: UDP-N-acetylglucosamine 1-carboxyvinyltransferase (Escherichia coli K-12), P0A749 [C115D]
Sequence (P0A749 whole entry C115D): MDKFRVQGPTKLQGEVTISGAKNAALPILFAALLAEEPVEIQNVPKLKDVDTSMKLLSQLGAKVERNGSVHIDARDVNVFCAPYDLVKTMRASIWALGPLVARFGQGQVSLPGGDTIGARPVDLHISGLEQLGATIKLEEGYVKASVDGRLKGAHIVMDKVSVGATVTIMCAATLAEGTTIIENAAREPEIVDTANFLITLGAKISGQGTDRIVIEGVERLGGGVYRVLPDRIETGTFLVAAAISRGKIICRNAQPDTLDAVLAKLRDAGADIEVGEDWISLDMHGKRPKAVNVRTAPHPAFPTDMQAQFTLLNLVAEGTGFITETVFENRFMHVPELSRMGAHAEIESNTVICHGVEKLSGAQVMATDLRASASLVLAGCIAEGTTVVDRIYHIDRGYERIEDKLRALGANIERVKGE
Assay: Inhibition of Escherichia coli MurA C115D mutant using UNAG as substrate pre incubated for 15 mins followed by substrate addition and measured after 15 mins by microplate reader analysis
Conditions: time 30.0 min
assay-metric: inhibition

compound: O=C1NC(=O)c2cc(NC(=O)C3CN(c4cccc(Cl)c4)N(c4cccc(Cl)c4)C3=O)ccc21 (centres undefined)
assay-metric: inhibition
reported-value: 74%
//
compound: O=C(Nc1ccc(-c2cn[nH]c2)cc1)C1CN(c2cccc(Cl)c2)N(c2cccc(Cl)c2)C1=O (centres undefined)
assay-metric: inhibition
reported-value: 77.2%
//
compound: O=C(Nc1ncc([N+](=O)[O-])s1)C1CN(c2cccc(Cl)c2)N(c2cccc(Cl)c2)C1=O (centres undefined)
assay-metric: inhibition
reported-value: 76%
